target: RPS6KA5 KD2 (human); assay: radiometric filter-binding kinase assay, Kinase HotSpot; details: compound 0.5 µM; ATP 10 µM
Parameter residual activity: see the listing below.
Quick reminder: number only, in %, skip the unit.

Below, each entry is followed by its recorded residual activity result.
Dear colleague, I am looking for the recorded residual activity of the following molecule: N#C/C(=C1/Nc2ccccc2S1)c1ccnc(NCCc2cccnc2)n1
98.9

Dear colleague, I am looking for the recorded residual activity of the following molecule: O=C1NC(=O)c2cc(Nc3ccc(F)cc3)c(Nc3ccc(F)cc3)cc21
93.6

Dear colleague, I am looking for the recorded residual activity of the following molecule: COc1cccc(-c2cc(=O)c3ccccc3o2)c1N
96.4

Dear colleague, I am looking for the recorded residual activity of the following molecule: COc1cc2c(N3CCN(C(=O)Nc4ccc(OC(C)C)cc4)CC3)ncnc2cc1OCCCN1CCCCC1
109

// next item, residual activity requested
Dear colleague, I am looking for the recorded residual activity of the following molecule: O=S(=O)(NCCNC/C=C/c1ccc(Br)cc1)c1cccc2cnccc12
39.4

====

Parameter residual activity: see the listing below.
molecular target: DAPK1 (human); assay: radiometric filter-binding kinase assay, Kinase HotSpot; settings: compound 0.5 µM; ATP 10 µM
Quick reminder: number only, in %, skip the unit.

Below, each entry is followed by its recorded residual activity result.
Dear colleague, I am looking for the recorded residual activity of the following compound: O=c1c2ccccc2[nH]c(=S)n1CCN1CCC(=C(c2ccc(F)cc2)c2ccc(F)cc2)CC1
93.8

Dear colleague, I am looking for the recorded residual activity of the following compound: CCOc1cc2ncnc(Nc3cccc(Br)c3)c2cc1OCC
77.4

Dear colleague, I am looking for the recorded residual activity of the following compound: CCCCc1c(-c2ccc(O)cc2)[nH]c2nccnc12
85.3

More entries:
Dear colleague, I am looking for the recorded residual activity of the following compound: COc1cc2c(Nc3ccc(Br)cc3F)ncnc2cc1OCC1CCN(C)CC1
105

Dear colleague, I am looking for the recorded residual activity of the following compound: COc1cc2ncnc(Nc3ccc(O)c(Br)c3)c2cc1OC
92

Dear colleague, I am looking for the recorded residual activity of the following compound: N#C/C(=C1/Nc2ccccc2S1)c1ccnc(NCCc2cccnc2)n1
99.3

Dear colleague, I am looking for the recorded residual activity of the following compound: O=c1[nH]c2ccccc2n1C1CCN(Cc2ccc(-c3nc4cc5[nH]cnc5cc4nc3-c3ccccc3)cc2)CC1
82.9

Dear colleague, I am looking for the recorded residual activity of the following compound: O=C1NC(=O)c2cc(Nc3ccc(F)cc3)c(Nc3ccc(F)cc3)cc21
81.3

====

target: ULK1 (human) (UniProt O75385); assay: radiometric filter-binding kinase assay, Kinase HotSpot; conditions: compound 0.5 µM; ATP 10 µM
Sequence (O75385 whole entry, looked up): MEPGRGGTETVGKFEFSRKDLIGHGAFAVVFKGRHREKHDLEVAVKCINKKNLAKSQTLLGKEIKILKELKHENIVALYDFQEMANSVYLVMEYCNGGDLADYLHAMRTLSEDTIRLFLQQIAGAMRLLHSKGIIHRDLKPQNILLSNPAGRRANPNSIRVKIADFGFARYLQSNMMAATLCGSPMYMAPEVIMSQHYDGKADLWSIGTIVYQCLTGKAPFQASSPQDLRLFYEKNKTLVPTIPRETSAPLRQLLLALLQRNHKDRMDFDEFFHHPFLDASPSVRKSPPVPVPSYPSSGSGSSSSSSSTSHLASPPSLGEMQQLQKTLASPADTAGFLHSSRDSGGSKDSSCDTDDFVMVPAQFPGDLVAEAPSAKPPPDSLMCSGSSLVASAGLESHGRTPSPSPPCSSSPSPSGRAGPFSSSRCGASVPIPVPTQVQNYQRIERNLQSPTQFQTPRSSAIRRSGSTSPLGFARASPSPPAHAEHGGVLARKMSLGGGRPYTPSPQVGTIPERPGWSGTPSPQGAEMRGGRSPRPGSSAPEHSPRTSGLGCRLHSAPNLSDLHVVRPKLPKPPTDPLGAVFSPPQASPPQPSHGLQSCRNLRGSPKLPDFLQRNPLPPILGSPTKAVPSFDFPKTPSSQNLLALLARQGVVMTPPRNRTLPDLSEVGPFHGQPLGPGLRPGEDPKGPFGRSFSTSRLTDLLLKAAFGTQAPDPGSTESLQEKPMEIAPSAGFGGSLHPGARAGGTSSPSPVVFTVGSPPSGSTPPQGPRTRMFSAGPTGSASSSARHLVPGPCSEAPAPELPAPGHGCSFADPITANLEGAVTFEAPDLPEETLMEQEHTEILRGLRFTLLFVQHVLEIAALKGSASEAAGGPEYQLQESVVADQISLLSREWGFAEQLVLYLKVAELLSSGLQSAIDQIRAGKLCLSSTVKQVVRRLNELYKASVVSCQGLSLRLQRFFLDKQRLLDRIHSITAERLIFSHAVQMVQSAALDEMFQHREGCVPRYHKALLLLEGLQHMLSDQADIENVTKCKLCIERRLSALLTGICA
outcome-measure: residual activity (%)
Quick reminder: number only, in %, skip the unit.

Below, each entry is followed by its recorded residual activity result.
Please provide the recorded residual activity for O=S(=O)(NCCNC/C=C/c1ccc(Br)cc1)c1cccc2cnccc12 , tested on ULK1 (human) (UniProt O75385).
102

Please provide the recorded residual activity for c1ccc(-c2cnc(Nc3ccc(OCCN4CCCC4)cc3)s2)cc1 , tested on ULK1 (human) (UniProt O75385).
127

Please provide the recorded residual activity for COc1cc2c(N3CCN(C(=O)Nc4ccc(OC(C)C)cc4)CC3)ncnc2cc1OCCCN1CCCCC1 , tested on ULK1 (human) (UniProt O75385).
92.1

// next item, residual activity requested
Please provide the recorded residual activity for O=c1c(-c2ccc(F)cc2)c(-c2ccncc2)[nH]n1-c1ccc(Cl)cc1 , tested on ULK1 (human) (UniProt O75385).
103

====

Parameter residual activity: see the listing below.
molecular target: ITK (human) (UniProt Q08881); test: radiometric filter-binding kinase assay, Kinase HotSpot; settings: compound 0.5 µM; ATP 10 µM
Sequence (Q08881 whole entry, looked up): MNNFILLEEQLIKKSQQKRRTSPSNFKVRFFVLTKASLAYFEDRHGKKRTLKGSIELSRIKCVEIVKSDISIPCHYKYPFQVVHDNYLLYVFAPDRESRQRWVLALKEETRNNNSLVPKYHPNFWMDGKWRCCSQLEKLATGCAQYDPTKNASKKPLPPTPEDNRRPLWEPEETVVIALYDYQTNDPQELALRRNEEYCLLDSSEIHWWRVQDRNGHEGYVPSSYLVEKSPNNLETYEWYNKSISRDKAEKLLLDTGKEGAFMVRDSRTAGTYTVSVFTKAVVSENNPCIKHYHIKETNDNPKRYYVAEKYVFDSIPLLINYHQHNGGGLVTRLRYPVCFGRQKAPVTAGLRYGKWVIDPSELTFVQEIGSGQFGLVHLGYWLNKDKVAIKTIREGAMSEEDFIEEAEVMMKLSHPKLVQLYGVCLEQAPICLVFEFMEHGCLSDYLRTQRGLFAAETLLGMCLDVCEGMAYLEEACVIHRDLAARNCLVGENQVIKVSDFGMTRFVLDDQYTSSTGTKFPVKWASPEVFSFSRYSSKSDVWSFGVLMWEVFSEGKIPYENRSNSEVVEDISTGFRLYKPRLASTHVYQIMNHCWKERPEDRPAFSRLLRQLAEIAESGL
Reply with the number, then its unit.

Below, each entry is followed by its recorded residual activity result.
Dear colleague, I am looking for the recorded residual activity of the following compound: O=c1c(-c2ccc(F)cc2)c(-c2ccncc2)[nH]n1-c1ccc(Cl)cc1
79.7%

Dear colleague, I am looking for the recorded residual activity of the following compound: N/C(=N\N=C/c1ccc(-c2cccc([N+](=O)[O-])c2)o1)N[N+](=O)[O-]
99.5%

Dear colleague, I am looking for the recorded residual activity of the following compound: O=C1NC(=O)c2cc(Nc3ccc(F)cc3)c(Nc3ccc(F)cc3)cc21
87.3%

// next item, residual activity requested
Dear colleague, I am looking for the recorded residual activity of the following compound: O=c1c2ccccc2[nH]c(=S)n1CCN1CCC(=C(c2ccc(F)cc2)c2ccc(F)cc2)CC1
97.1%

====

molecular target: PRKD2 (human); experiment: radiometric filter-binding kinase assay, Kinase HotSpot; conditions: compound 0.5 µM; ATP 10 µM
Binary call on residual activity: Fulfilled from 90% upward, Not fulfilled beneath that.

Use the examples below as a reference point.
Can Cc1cc(Nc2nc(-c3ccccc3)nc3ccccc23)n[nH]1 be said to have residual activity at or above 90%?
Not fulfilled

Can COc1cc2c(N3CCN(C(=O)Nc4ccc(OC(C)C)cc4)CC3)ncnc2cc1OCCCN1CCCCC1 be said to have residual activity at or above 90%?
Fulfilled

Can O=C1NC(=O)c2c1c1c3ccccc3[nH]c1c1[nH]c3cc(Br)ccc3c21 be said to have residual activity at or above 90%?
Not fulfilled

Can N/C(=N\N=C/c1ccc(-c2cccc([N+](=O)[O-])c2)o1)N[N+](=O)[O-] be said to have residual activity at or above 90%?
Fulfilled

Can O=c1cc(N2CCOCC2)oc2c(-c3ccccc3)cccc12 be said to have residual activity at or above 90%?
Fulfilled

Can CCOc1cc2ncnc(Nc3cccc(Br)c3)c2cc1OCC be said to have residual activity at or above 90%?
Not fulfilled

Can Cn1cc(/C=C2\C(=O)Nc3ccc(S(N)(=O)=O)cc32)c2ccccc21 be said to have residual activity at or above 90%?
Not fulfilled

Can COc1cc2ncnc(Nc3ccc(O)c(Br)c3)c2cc1OC be said to have residual activity at or above 90%?
Not fulfilled

Alright, here's another molecule for you.
Can O=c1[nH]c2ccccc2n1C1CCN(Cc2ccc(-c3nc4cc5[nH]cnc5cc4nc3-c3ccccc3)cc2)CC1 be said to have residual activity at or above 90%?
Fulfilled

====

target: MELK (human); assay: radiometric filter-binding kinase assay, Kinase HotSpot; conditions: compound 0.5 µM; ATP 10 µM
Consider the following partition of reported residual activity into named classes: bin 1: < 80%; bin 2: ≥ 80% and < 90%; bin 3: ≥ 90%

Use the examples below as a reference point.
Bin? COc1cc2c(Nc3ccc(Br)cc3F)ncnc2cc1OCC1CCN(C)CC1
bin 3

Bin? COc1cc2c(cc1OC)-c1[nH]nc(Nc3cccc(F)c3)c1C2
bin 1

Bin? c1ccc(-c2cnc(Nc3ccc(OCCN4CCCC4)cc3)s2)cc1
bin 2

Bin? COc1cc2ncnc(Nc3ccc(O)c(Br)c3)c2cc1OC
bin 2

Bin? O=c1c2ccccc2[nH]c(=S)n1CCN1CCC(=C(c2ccc(F)cc2)c2ccc(F)cc2)CC1
bin 3

More entries:
Bin? O=C1NC(=O)c2c1c1c3ccccc3[nH]c1c1[nH]c3cc(Br)ccc3c21
bin 1

Bin? CCc1nc(-c2ccc(OC)cc2)[nH]c1-c1ccncc1
bin 3

====

target: SGK3 (human) (UniProt Q96BR1); assay: radiometric filter-binding kinase assay, Kinase HotSpot; settings: compound 0.5 µM; ATP 10 µM
Sequence (Q96BR1 whole entry, looked up): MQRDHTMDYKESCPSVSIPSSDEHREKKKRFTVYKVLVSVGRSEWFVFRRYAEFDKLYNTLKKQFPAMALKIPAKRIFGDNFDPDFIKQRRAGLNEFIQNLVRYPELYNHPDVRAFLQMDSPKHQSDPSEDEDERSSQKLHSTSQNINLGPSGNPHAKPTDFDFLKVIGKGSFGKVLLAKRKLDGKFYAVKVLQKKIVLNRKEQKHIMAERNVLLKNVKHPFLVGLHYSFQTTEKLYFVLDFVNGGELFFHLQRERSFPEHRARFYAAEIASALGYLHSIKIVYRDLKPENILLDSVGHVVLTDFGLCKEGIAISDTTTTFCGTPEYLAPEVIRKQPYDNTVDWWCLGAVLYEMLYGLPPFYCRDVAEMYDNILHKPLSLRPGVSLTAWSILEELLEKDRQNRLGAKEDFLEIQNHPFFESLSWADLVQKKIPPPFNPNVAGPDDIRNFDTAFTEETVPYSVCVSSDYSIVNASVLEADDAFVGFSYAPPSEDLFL
Parameter residual activity: see the listing below.

Please provide the recorded residual activity for N#C/C(=C1/Nc2ccccc2S1)c1ccnc(NCCc2cccnc2)n1 , tested on SGK3 (human) (UniProt Q96BR1).
107%

Please provide the recorded residual activity for N#CCCc1ccc2c(c1)-c1[nH]c3ccc([N+](=O)[O-])cc3c1CC(=O)N2 , tested on SGK3 (human) (UniProt Q96BR1).
99.2%

Please provide the recorded residual activity for O=C1NC(=O)c2cc(Nc3ccc(F)cc3)c(Nc3ccc(F)cc3)cc21 , tested on SGK3 (human) (UniProt Q96BR1).
102%

Please provide the recorded residual activity for O=c1[nH]c2ccccc2n1C1CCN(Cc2ccc(-c3nc4cc5[nH]cnc5cc4nc3-c3ccccc3)cc2)CC1 , tested on SGK3 (human) (UniProt Q96BR1).
108%

====

biological target: UniProt Q9H0K1; assay: radiometric filter-binding kinase assay, Kinase HotSpot; conditions: compound 0.5 µM; ATP 10 µM
Sequence (Q9H0K1 whole entry, looked up): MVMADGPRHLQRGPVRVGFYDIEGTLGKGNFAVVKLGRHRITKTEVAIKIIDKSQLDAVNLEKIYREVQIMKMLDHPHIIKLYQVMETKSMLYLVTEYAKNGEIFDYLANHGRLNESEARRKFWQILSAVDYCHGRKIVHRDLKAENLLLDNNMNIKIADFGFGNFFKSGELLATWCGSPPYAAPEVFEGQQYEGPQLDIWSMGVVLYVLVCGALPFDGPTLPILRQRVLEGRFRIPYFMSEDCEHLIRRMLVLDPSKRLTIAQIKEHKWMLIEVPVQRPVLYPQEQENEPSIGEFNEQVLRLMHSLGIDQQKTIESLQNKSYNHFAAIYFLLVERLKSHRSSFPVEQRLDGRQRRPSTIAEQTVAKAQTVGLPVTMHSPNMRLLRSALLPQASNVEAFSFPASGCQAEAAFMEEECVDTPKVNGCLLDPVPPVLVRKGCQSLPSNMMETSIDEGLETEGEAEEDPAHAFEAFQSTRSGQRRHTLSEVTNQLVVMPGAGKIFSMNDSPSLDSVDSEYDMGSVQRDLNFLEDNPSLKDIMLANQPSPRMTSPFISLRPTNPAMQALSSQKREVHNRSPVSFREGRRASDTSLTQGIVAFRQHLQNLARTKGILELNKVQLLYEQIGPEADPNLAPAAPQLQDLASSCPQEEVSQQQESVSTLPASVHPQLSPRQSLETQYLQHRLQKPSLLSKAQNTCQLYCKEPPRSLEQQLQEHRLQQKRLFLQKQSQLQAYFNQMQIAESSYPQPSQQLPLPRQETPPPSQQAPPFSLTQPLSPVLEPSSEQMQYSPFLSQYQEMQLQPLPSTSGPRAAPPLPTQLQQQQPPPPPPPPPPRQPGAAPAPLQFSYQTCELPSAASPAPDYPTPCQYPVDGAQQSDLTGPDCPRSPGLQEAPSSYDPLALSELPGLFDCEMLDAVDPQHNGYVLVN
outcome-measure: residual activity (%)
Quick reminder: number only, in %, skip the unit.

Dear colleague, I am looking for the recorded residual activity of the following compound: COc1cc2c(Nc3ccc(Br)cc3F)ncnc2cc1OCC1CCN(C)CC1
17.6

Dear colleague, I am looking for the recorded residual activity of the following compound: O=S(=O)(NCCNC/C=C/c1ccc(Br)cc1)c1cccc2cnccc12
95

More entries:
Dear colleague, I am looking for the recorded residual activity of the following compound: N/C(=N\N=C/c1ccc(-c2cccc([N+](=O)[O-])c2)o1)N[N+](=O)[O-]
91.6

Dear colleague, I am looking for the recorded residual activity of the following compound: O=c1[nH]c2ccccc2n1C1CCN(Cc2ccc(-c3nc4cc5[nH]cnc5cc4nc3-c3ccccc3)cc2)CC1
114

Dear colleague, I am looking for the recorded residual activity of the following compound: CCOc1cc2ncnc(Nc3cccc(Br)c3)c2cc1OCC
109

Dear colleague, I am looking for the recorded residual activity of the following compound: Nc1ncnc2c1cnn2-c1ccccc1
99.8

Just for reference, the kinase profiling compilation of Christmann-Franck et al. (2016) is where these values come from.
